Provide the reported % change of MS signal compared to control sample of each item.
assay system: JAK1 (Homo sapiens (Human), UniProt P23458)
assay comment: KINATIV assay
Type: cell-based
conditions used: 1 μM, 90 minutes, BCWM.1 cells
# unit: % | format: bare number

Assign % change of MS signal compared to control sample to the following record: C=CC(=O)N1CCCCC(Nc2nccc(Nc3ncc(C(=O)Nc4c(C)cccc4C)s3)n2)C1 (stereo not shown)
7.5

Assign % change of MS signal compared to control sample to the following record: C=CC(=O)N1CCC(Cn2ccc(Nc3ncc(C(=O)Nc4c(C)cccc4Cl)s3)n2)C1 (stereo not shown)
5.4

Assign % change of MS signal compared to control sample to the following record: C=CC(=O)N1CCC(CNc2nccc(Nc3ncc(C(=O)Nc4c(C)cccc4C)s3)n2)C1 (racemic)
−1.9

Assign % change of MS signal compared to control sample to the following record: C=CC(=O)N1CC[C@@H](Nc2nccc(Nc3ncc(C(=O)Nc4c(C)cccc4C)s3)n2)C1
−5.7

====

assay system: PIP5K3 (Homo sapiens (Human))
assay comment: KINATIV assay
Assay type: cell-based
conditions used: 1 μM, 90 minutes, BCWM.1 cells
measured endpoint: % change of MS signal compared to control sample (%)
# unit: % | format: bare number

Assign % change of MS signal compared to control sample to the following record: C=CC(=O)N1CC[C@@H](Nc2nccc(Nc3ncc(C(=O)Nc4c(C)cccc4C)s3)n2)C1
14.5

Assign % change of MS signal compared to control sample to the following record: C=CC(=O)N1CCCCC(Nc2nccc(Nc3ncc(C(=O)Nc4c(C)cccc4C)s3)n2)C1 (stereo not shown)
4.3

Assign % change of MS signal compared to control sample to the following record: C=CC(=O)N1CCC(CNc2nccc(Nc3ncc(C(=O)Nc4c(C)cccc4C)s3)n2)C1 (racemic)
4.2

Assign % change of MS signal compared to control sample to the following record: C=CC(=O)N1CCC(Cn2ccc(Nc3ncc(C(=O)Nc4c(C)cccc4Cl)s3)n2)C1 (stereo not shown)
16.3

====

Provide the reported % change of MS signal compared to control sample of each item.
assay system: LKB1 (Homo sapiens (Human))
Sequence (Q15831 1-430): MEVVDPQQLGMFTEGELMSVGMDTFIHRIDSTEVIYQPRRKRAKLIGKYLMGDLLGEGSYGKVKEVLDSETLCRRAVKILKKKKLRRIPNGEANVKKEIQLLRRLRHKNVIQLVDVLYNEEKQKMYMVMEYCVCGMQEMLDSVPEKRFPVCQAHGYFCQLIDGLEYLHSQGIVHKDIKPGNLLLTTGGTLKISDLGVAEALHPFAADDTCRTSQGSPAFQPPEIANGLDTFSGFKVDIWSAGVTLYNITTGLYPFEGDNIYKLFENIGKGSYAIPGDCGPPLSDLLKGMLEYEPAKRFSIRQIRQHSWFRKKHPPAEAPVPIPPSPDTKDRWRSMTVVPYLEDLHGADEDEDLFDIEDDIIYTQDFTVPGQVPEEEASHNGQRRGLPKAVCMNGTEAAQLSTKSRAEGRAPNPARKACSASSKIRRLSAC
Sequence (Q7RTN6 whole entry partner): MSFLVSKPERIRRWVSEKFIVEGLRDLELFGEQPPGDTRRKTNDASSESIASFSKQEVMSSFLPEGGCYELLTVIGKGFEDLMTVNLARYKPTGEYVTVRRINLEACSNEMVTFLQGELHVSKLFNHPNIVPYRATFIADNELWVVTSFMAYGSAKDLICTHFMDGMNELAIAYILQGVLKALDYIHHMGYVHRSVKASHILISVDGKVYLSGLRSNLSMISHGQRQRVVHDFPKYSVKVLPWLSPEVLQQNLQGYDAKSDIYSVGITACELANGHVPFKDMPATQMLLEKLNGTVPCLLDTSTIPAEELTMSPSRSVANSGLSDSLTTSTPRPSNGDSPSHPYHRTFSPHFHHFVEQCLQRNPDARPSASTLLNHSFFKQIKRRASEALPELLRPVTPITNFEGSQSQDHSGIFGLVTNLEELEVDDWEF
Sequence (Q9Y376 whole entry partner): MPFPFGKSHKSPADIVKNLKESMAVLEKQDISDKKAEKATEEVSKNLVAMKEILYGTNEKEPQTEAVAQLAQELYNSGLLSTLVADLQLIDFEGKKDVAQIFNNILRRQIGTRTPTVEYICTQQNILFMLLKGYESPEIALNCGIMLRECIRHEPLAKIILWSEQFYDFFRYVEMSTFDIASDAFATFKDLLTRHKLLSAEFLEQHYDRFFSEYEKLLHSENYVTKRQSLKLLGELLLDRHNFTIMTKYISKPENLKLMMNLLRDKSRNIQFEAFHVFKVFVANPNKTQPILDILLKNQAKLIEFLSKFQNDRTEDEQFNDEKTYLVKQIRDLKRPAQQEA
assay comment: KINATIV assay
Assay type: cell-based
conditions used: 1 μM, 90 minutes, BCWM.1 cells

Assign % change of MS signal compared to control sample to the following record: C=CC(=O)N1CCC(CNc2nccc(Nc3ncc(C(=O)Nc4c(C)cccc4C)s3)n2)C1 (racemic) [Example I-8]
−1.8%

Assign % change of MS signal compared to control sample to the following record: C=CC(=O)N1CCCCC(Nc2nccc(Nc3ncc(C(=O)Nc4c(C)cccc4C)s3)n2)C1 (stereo not shown) [Example I-7]
1.2%

Assign % change of MS signal compared to control sample to the following record: C=CC(=O)N1CCC(Cn2ccc(Nc3ncc(C(=O)Nc4c(C)cccc4Cl)s3)n2)C1 (stereo not shown) [II-1]
−1.2%

Assign % change of MS signal compared to control sample to the following record: C=CC(=O)N1CC[C@@H](Nc2nccc(Nc3ncc(C(=O)Nc4c(C)cccc4C)s3)n2)C1 [Example I-4]
−4.5%

====

assay system: CK2a2 (Homo sapiens (Human))
Sequence (P19784 whole entry): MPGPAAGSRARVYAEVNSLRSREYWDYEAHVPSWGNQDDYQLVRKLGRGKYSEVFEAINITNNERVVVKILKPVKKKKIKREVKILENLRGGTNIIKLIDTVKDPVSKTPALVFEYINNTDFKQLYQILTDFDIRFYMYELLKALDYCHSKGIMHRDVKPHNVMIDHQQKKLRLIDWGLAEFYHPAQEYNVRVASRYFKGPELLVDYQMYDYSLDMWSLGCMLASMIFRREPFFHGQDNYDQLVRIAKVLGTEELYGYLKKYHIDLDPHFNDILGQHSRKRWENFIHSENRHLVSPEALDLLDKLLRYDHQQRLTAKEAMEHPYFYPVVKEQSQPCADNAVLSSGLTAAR
assay comment: KINATIV assay
Assay type: cell-based
conditions used: 1 μM, 90 minutes, BCWM.1 cells
Provide the reported % change of MS signal compared to control sample of each item.

Fill: % change of MS signal compared to control sample (CK2a2 (Homo sapiens (Human))) for this compound C=CC(=O)N1CCC(CNc2nccc(Nc3ncc(C(=O)Nc4c(C)cccc4C)s3)n2)C1 (racemic)
27.5%

Fill: % change of MS signal compared to control sample (CK2a2 (Homo sapiens (Human))) for this compound C=CC(=O)N1CC[C@@H](Nc2nccc(Nc3ncc(C(=O)Nc4c(C)cccc4C)s3)n2)C1
−3.6%

Fill: % change of MS signal compared to control sample (CK2a2 (Homo sapiens (Human))) for this compound C=CC(=O)N1CCC(Cn2ccc(Nc3ncc(C(=O)Nc4c(C)cccc4Cl)s3)n2)C1 (stereo not shown)
13.8%

Fill: % change of MS signal compared to control sample (CK2a2 (Homo sapiens (Human))) for this compound C=CC(=O)N1CCCCC(Nc2nccc(Nc3ncc(C(=O)Nc4c(C)cccc4C)s3)n2)C1 (stereo not shown)
−6.4%

====

assay system: TBK1 (Homo sapiens (Human))
Sequence (Q9UHD2 whole entry): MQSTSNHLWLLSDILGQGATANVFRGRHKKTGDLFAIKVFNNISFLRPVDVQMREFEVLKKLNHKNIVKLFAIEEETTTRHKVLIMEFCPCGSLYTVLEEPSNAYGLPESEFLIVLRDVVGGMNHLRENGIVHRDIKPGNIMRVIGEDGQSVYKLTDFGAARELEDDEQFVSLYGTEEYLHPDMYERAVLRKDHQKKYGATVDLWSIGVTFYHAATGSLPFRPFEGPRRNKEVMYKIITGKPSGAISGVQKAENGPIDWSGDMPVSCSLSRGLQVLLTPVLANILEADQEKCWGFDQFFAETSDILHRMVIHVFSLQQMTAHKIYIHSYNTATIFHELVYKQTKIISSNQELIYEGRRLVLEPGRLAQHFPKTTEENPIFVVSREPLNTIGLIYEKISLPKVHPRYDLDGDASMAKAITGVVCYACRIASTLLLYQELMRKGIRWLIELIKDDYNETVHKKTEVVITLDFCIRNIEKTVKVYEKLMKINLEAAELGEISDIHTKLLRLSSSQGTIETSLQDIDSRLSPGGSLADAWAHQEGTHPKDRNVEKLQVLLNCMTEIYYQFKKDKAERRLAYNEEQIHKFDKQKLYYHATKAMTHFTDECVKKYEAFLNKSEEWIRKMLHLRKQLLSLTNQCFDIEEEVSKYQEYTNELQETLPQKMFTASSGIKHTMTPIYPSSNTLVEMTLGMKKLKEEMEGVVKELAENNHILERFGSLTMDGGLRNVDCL
assay comment: KINATIV assay
Type: cell-based
conditions used: 1 μM, 90 minutes, BCWM.1 cells
measured endpoint: % change of MS signal compared to control sample (%)
# unit: % | format: bare number

Assign % change of MS signal compared to control sample to the following record: C=CC(=O)N1CC[C@@H](Nc2nccc(Nc3ncc(C(=O)Nc4c(C)cccc4C)s3)n2)C1
−34.8

Assign % change of MS signal compared to control sample to the following record: C=CC(=O)N1CCC(CNc2nccc(Nc3ncc(C(=O)Nc4c(C)cccc4C)s3)n2)C1 (racemic)
−2.9

Assign % change of MS signal compared to control sample to the following record: C=CC(=O)N1CCC(Cn2ccc(Nc3ncc(C(=O)Nc4c(C)cccc4Cl)s3)n2)C1 (stereo not shown)
−30.2

Assign % change of MS signal compared to control sample to the following record: C=CC(=O)N1CCCCC(Nc2nccc(Nc3ncc(C(=O)Nc4c(C)cccc4C)s3)n2)C1 (stereo not shown)
−39.7

====

Notes on % change of MS signal compared to control sample obtained with PCTAIRE1 (Homo sapiens (Human), UniProt Q00536).
Sequence (Q00536 whole entry, looked up): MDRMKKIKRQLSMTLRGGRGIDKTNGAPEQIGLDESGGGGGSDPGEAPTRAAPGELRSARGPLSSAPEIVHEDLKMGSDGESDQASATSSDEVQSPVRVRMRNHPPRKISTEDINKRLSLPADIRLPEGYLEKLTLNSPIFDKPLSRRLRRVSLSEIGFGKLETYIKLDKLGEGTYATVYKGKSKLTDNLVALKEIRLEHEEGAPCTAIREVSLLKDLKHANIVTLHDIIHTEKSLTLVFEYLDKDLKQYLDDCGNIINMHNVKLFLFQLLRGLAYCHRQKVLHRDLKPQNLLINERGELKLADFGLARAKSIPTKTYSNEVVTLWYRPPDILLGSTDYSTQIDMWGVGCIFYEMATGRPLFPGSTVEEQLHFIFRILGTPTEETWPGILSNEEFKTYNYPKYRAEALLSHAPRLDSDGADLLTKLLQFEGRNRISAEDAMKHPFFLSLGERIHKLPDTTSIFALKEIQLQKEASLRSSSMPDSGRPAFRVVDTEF
Answer by giving the amount and then stating its unit.

Assign % change of MS signal compared to control sample to the following record: C=CC(=O)N1CC[C@@H](Nc2nccc(Nc3ncc(C(=O)Nc4c(C)cccc4C)s3)n2)C1
19.0%

Assign % change of MS signal compared to control sample to the following record: C=CC(=O)N1CCCCC(Nc2nccc(Nc3ncc(C(=O)Nc4c(C)cccc4C)s3)n2)C1 (stereo not shown)
38.2%

Assign % change of MS signal compared to control sample to the following record: C=CC(=O)N1CCC(Cn2ccc(Nc3ncc(C(=O)Nc4c(C)cccc4Cl)s3)n2)C1 (stereo not shown)
38.4%

Assign % change of MS signal compared to control sample to the following record: C=CC(=O)N1CCC(CNc2nccc(Nc3ncc(C(=O)Nc4c(C)cccc4C)s3)n2)C1 (racemic)
32.9%

====

Provide the reported % change of MS signal compared to control sample of each item.
assay system: NEK7 (Homo sapiens (Human), UniProt Q8TDX7)
Sequence (Q8TDX7 whole entry): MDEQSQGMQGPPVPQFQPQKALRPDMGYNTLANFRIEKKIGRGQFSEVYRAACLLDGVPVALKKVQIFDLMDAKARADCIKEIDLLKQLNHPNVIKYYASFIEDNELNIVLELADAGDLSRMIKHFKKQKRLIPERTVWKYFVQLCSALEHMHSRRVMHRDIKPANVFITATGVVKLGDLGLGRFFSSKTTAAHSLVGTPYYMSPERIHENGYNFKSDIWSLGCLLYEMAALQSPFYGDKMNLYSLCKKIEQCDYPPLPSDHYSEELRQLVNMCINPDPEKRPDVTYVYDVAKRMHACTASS
assay comment: KINATIV assay
Format: cell-based
conditions used: 1 μM, 90 minutes, BCWM.1 cells
# unit: % | format: bare number

Assign % change of MS signal compared to control sample to the following record: C=CC(=O)N1CCCCC(Nc2nccc(Nc3ncc(C(=O)Nc4c(C)cccc4C)s3)n2)C1 (stereo not shown)
10.0

Assign % change of MS signal compared to control sample to the following record: C=CC(=O)N1CC[C@@H](Nc2nccc(Nc3ncc(C(=O)Nc4c(C)cccc4C)s3)n2)C1
−7.7

Assign % change of MS signal compared to control sample to the following record: C=CC(=O)N1CCC(Cn2ccc(Nc3ncc(C(=O)Nc4c(C)cccc4Cl)s3)n2)C1 (stereo not shown)
−8.5

Assign % change of MS signal compared to control sample to the following record: C=CC(=O)N1CCC(CNc2nccc(Nc3ncc(C(=O)Nc4c(C)cccc4C)s3)n2)C1 (racemic)
−1.0

====

assay system: Erk1 (Homo sapiens (Human))
Sequence (P27361 whole entry): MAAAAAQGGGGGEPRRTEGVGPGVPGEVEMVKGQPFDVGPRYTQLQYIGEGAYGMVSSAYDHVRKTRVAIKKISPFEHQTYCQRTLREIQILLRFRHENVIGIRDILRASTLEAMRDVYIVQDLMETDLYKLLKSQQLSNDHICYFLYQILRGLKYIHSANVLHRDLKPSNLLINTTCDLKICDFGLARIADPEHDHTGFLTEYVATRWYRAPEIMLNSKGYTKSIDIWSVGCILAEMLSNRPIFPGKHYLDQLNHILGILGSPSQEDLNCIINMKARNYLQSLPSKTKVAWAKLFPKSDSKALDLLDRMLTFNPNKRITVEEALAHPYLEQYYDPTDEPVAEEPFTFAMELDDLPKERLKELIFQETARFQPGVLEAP
assay comment: KINATIV assay
Type: cell-based
conditions used: 1 μM, 90 minutes, BCWM.1 cells
measured endpoint: % change of MS signal compared to control sample (%)
# unit: % | format: bare number

Assign % change of MS signal compared to control sample to the following record: C=CC(=O)N1CCCCC(Nc2nccc(Nc3ncc(C(=O)Nc4c(C)cccc4C)s3)n2)C1 (stereo not shown) [Example I-7]
−23.1

Assign % change of MS signal compared to control sample to the following record: C=CC(=O)N1CCC(CNc2nccc(Nc3ncc(C(=O)Nc4c(C)cccc4C)s3)n2)C1 (racemic) [Example I-8]
−19.7

Assign % change of MS signal compared to control sample to the following record: C=CC(=O)N1CC[C@@H](Nc2nccc(Nc3ncc(C(=O)Nc4c(C)cccc4C)s3)n2)C1 [Example I-4]
−10.9

Assign % change of MS signal compared to control sample to the following record: C=CC(=O)N1CCC(Cn2ccc(Nc3ncc(C(=O)Nc4c(C)cccc4Cl)s3)n2)C1 (stereo not shown) [II-1]
−17.6

====

Provide the reported % change of MS signal compared to control sample of each item.
assay system: UniProt:P31749
Sequence (P31749 whole entry): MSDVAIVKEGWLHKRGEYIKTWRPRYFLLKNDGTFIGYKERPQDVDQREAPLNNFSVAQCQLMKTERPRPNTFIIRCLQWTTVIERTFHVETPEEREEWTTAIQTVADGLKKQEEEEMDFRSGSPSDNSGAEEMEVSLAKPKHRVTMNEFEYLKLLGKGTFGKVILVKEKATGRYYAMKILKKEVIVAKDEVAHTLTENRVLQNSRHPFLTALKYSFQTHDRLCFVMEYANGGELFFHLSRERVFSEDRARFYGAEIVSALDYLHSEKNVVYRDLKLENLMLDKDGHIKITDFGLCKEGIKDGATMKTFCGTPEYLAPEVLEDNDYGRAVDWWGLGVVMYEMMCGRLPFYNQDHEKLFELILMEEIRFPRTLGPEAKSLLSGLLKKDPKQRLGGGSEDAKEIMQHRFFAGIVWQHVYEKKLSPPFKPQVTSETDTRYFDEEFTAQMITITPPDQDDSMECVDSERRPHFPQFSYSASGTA
assay comment: KINATIV assay
Assay type: cell-based
conditions used: 1 μM, 90 minutes, BCWM.1 cells
# unit: % | format: bare number

Assign % change of MS signal compared to control sample to the following record: C=CC(=O)N1CCC(CNc2nccc(Nc3ncc(C(=O)Nc4c(C)cccc4C)s3)n2)C1 (racemic)
−19.5

Assign % change of MS signal compared to control sample to the following record: C=CC(=O)N1CC[C@@H](Nc2nccc(Nc3ncc(C(=O)Nc4c(C)cccc4C)s3)n2)C1
−11.0

Assign % change of MS signal compared to control sample to the following record: C=CC(=O)N1CCC(Cn2ccc(Nc3ncc(C(=O)Nc4c(C)cccc4Cl)s3)n2)C1 (stereo not shown)
−17.8

Assign % change of MS signal compared to control sample to the following record: C=CC(=O)N1CCCCC(Nc2nccc(Nc3ncc(C(=O)Nc4c(C)cccc4C)s3)n2)C1 (stereo not shown)
−16.4

Data provenance is patent US10844077B2.
